biological target: Adenosylhomocysteinase (Homo sapiens, UniProt P23526); assay: Inhibition of recombinant human S-adenosyl-L-homocysteine hydrolase assessed as hydrolysis of AdoHcy after 8 mins by HPLC analysis
Sequence (P23526 whole entry): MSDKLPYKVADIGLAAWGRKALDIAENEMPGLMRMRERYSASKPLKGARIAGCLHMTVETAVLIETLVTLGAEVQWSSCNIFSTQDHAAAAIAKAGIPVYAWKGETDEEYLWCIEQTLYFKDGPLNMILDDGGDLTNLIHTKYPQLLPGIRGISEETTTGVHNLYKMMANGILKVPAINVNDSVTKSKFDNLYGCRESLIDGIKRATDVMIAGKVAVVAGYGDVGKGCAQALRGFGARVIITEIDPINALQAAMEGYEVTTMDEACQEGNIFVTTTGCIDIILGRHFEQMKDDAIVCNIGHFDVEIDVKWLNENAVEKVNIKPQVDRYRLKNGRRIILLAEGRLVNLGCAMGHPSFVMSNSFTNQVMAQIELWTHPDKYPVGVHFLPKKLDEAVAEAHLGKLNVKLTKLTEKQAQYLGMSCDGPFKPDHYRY
measured-parameter: IC50 (nM)

[a] CCN(C(=O)CN(CC(=O)NCCN1CCCC1)c1cc(Cl)ccc1Oc1ccc(Cl)cc1)C1Cc2ccccc2C1
[b] CN(C(=O)CN(CC(=O)NC[C@@H]1CCCN1C(=O)OC(C)(C)C)c1cc(Cl)ccc1Oc1ccc(Cl)cc1)C1Cc2ccccc2C1
input: For a and b , which recorded IC50 is lower? Label of pick, please.
output: b
(b: 110 nM, a: 640 nM)

###

biological target: Adenosylhomocysteinase (Homo sapiens, UniProt P23526); test: Inhibition of recombinant human S-adenosyl-L-homocysteine hydrolase assessed as hydrolysis of AdoHcy after 8 mins by HPLC analysis
measured-parameter: IC50 (nM)

Consider the reported IC50 for these molecules:
- molecule: "CC(C)N(CCNC(=O)CN(CC(=O)N(C)C1Cc2ccccc2C1)c1cc(Cl)ccc1Oc1ccc(Cl)cc1)C(=O)OC(C)(C)C"
  study-system: "Adenosylhomocysteinase (Homo sapiens, UniProt P23526)"
  IC50 (nM): 49
- molecule: "O=C(CN(CC(=O)N1CCCc2ccccc21)c1cc(Cl)ccc1Oc1ccc(Cl)cc1)NCCN1CCCC1"
  study-system: "Adenosylhomocysteinase (Homo sapiens, UniProt P23526)"
  IC50 (nM): 2300
- molecule: "CN(C(=O)CN(CC(=O)NC1CCN(C(=O)OC(C)(C)C)C1)c1cc(Cl)ccc1Oc1ccc(Cl)cc1)C1Cc2ccccc2C1 (stereo unspecified)"
  study-system: "Adenosylhomocysteinase (Homo sapiens, UniProt P23526)"
  IC50 (nM): 1500

[1] CN(CCNC(=O)CN(CC(=O)N(C)C1Cc2ccccc2C1)c1cc(Cl)ccc1Oc1ccc(Cl)cc1)C(=O)OC(C)(C)C
[2] CCNCCNC(=O)CN(CC(=O)N(C)N1Cc2ccccc2C1)c1cc(Cl)ccc1Oc1ccc(Cl)cc1
[3] CN(C(=O)CN(CC(=O)NC[C@H]1CCCN1C(=O)OC(C)(C)C)c1cc(Cl)ccc1Oc1ccc(Cl)cc1)C1Cc2ccccc2C1
[4] CN(C(=O)CN(CC(=O)NC1CCCN(C(=O)OC(C)(C)C)C1)c1cc(Cl)ccc1Oc1ccc(Cl)cc1)C1Cc2ccccc2C1 (stereo unspecified)
input: // ranking: key=IC50, reverse=True Put the labels in the requested order and write them down.
output: 4, 3, 1, 2
(4: 1200 nM, 3: 600 nM, 1: 70 nM, 2: 8.5 nM)

[P] CCN(CCNC(=O)CN(CC(=O)N(C)C1Cc2ccccc2C1)c1cc(Cl)ccc1Oc1ccc(Cl)cc1)C(=O)OC(C)(C)C
[Q] CN(C(=O)CN(CC(=O)NCC1CCCCN1C(=O)OC(C)(C)C)c1cc(Cl)ccc1Oc1ccc(Cl)cc1)C1Cc2ccccc2C1 (stereo unspecified)
input: Given the listed records, identify the one among P and Q with higher IC50. Label of pick, please.
output: Q
(Q: 150 nM, P: 60 nM)
